- MEASUREMENT PROTOCOL: Cmax in fasted Sprague-Dawley rat at 1.49 mg/kg, iv and 3.19 mg/kg, po
- Type: ADME, organism-based
- EXPERIMENTAL CONDITIONS: in vivo
OUTCOME MEASURE: Cmax (ng/mL)
Dear colleague, please return just the value in ng/mL, with no unit written.

# get_value(readout='Cmax', item= `O=C(O)CCNC(=O)c1ccc(CN(c2ccc(OC(F)(F)F)cc2)c2nc(-c3ccc(C(F)(F)F)cc3)cs2)cc1` ) 638

====

- MEASUREMENT PROTOCOL: Oral bioavailability in fasted Sprague-Dawley rat at 2.1 mg/kg by HTLC-MS/MS analysis
- Assay type: ADME, organism-based
- EXPERIMENTAL CONDITIONS: in vivo
OUTCOME MEASURE: bioavailability (%)
Please reply with the bare figure in % and do not write the unit itself.

Which measured bioavailability value corresponds to `O=C(O)CCNC(=O)c1ccc(CN(c2ccc3c(c2)Cc2ccccc2-3)c2nc(-c3ccc(OC(F)(F)F)cc3)cs2)cc1` ? 12

====

- TARGET DESC: Gastric inhibitory polypeptide receptor (Homo sapiens, UniProt P48546)
- Sequence (P48546 whole entry): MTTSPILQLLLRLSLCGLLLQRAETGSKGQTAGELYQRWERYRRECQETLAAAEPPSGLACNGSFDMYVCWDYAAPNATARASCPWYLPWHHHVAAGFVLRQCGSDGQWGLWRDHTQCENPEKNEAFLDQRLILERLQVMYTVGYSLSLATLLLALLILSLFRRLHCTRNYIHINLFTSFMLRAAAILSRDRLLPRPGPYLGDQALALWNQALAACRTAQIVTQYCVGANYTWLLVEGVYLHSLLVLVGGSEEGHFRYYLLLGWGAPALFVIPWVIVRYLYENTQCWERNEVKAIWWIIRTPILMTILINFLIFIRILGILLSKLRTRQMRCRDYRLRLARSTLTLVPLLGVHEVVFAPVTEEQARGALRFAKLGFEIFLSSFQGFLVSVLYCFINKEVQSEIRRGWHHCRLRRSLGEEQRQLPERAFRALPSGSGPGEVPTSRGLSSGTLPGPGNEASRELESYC
- MEASUREMENT PROTOCOL: Binding affinity to human recombinant GIPR expressed in BHK cells by membrane filter assay
- Format: cell-based
OUTCOME MEASURE: IC50

Consider the worked cases shown below.
>  <COMPOUND>
O=C(O)CCNC(=O)c1ccc(CN(c2ccc3c(c2)CCC3)c2nc(-c3ccc(OC(F)(F)F)cc3)cs2)cc1

>  <IC50>
770 nM

$$$$
>  <COMPOUND>
O=C(O)CCNC(=O)c1ccc(CN(c2ccc3c(c2)CCCC3)c2nc(-c3ccc(C(F)(F)F)cc3)cs2)cc1

>  <IC50>
390 nM

$$$$
>  <COMPOUND>
O=C(O)CCNC(=O)c1ccc(N(Cc2ccc3c(c2)Cc2ccccc2-3)c2nc(-c3ccc(Cl)cc3)cs2)cc1

>  <IC50>
320 nM

$$$$

# evaluate next
GET /values?readout=IC50&item= `O=C(O)CCNC(=O)c1ccc(CN(c2ccc(OC(F)(F)F)cc2)c2nc(-c3ccc(C(F)(F)F)cc3)cs2)cc1` 480 nM

====

- MEASUREMENT PROTOCOL: Tmax in fasted Sprague-Dawley rat at 1.6mg/kg, iv and 3 mg/kg, po
- Type: ADME, organism-based
- Design: dose 3 mg/kg, route oral
- EXPERIMENTAL CONDITIONS: in vivo
OUTCOME MEASURE: Tmax (h)
Respond with the bare value in h.

>  <COMPOUND STRUCTURE STRING>
O=C(O)CCNC(=O)c1ccc(N(Cc2ccc3c(c2)Cc2ccccc2-3)c2nc(-c3ccc(OC(F)(F)F)cc3)cs2)cc1

>  <MEASURED>
1.5

$$$$

Now consider a different compound.
Any idea what its Tmax is? The compound is `O=C(O)CCNC(=O)c1ccc(N(Cc2ccc3c(c2)Cc2ccccc2-3)c2nc(-c3ccc(C(F)(F)F)cc3)cs2)cc1` 1.5

====

- MEASUREMENT PROTOCOL: Clearance in fasted Sprague-Dawley rat at 1.59 mg/kg, iv and 3.20 mg/kg, po by HTLC-MS/MS analysis
- Format: ADME, organism-based
- EXPERIMENTAL CONDITIONS: in vivo
OUTCOME MEASURE: clearance (mL/min/kg)
The figure you give is taken to be in mL/min/kg; do not add the unit.

Need clearance, item `O=C(O)CCNC(=O)c1ccc(CN(c2ccc(Cl)cc2)c2nc(-c3ccc(OC(F)(F)F)cc3)cs2)cc1` 6

====

- MEASUREMENT PROTOCOL: Half life in monkey at 0.3 to 3 mg/kg, iv
- Type: ADME, organism-based, Macaca mulatta
- Design: dose 0.3-3 mg/kg, route intravenous
- EXPERIMENTAL CONDITIONS: rhesus monkey, in vivo
OUTCOME MEASURE: half-life (min)
Form entry: value (min) — number only.

Entry under review: `O=C(O)CCNC(=O)c1ccc(CN(c2ccc(C(F)(F)F)cc2)c2nc(-c3ccc(Cl)cc3)cs2)cc1` . Reported half-life? 314

====

- MEASUREMENT PROTOCOL: Binding affinity to glucagon receptor in monkey liver membrane by membrane filter assay
- Type: cell membranes, Macaca mulatta
Just a reminder that ties go to n: only IC50 strictly below 70 nM counts as y.

I wonder whether `O=C(O)CCNC(=O)c1ccc(CN(c2ccc3c(c2)CCCC3)c2nc(-c3ccc(C(F)(F)F)cc3)cs2)cc1` has IC50 below 70 nM. Can you tell? y

Is 70 nM strictly greater than the compound's reported IC50? compound: `O=C(O)CCNC(=O)c1ccc(CN(c2ccc(Cl)cc2)c2nc(-c3ccc(OC(F)(F)F)cc3)cs2)cc1` y

====

- MEASUREMENT PROTOCOL: Cmax in fasted Sprague-Dawley rat at 1.9 mg/kg, iv and 3.9 mg/kg, po by HTLC-MS/MS analysis
- Assay type: ADME, organism-based
- EXPERIMENTAL CONDITIONS: in vivo
OUTCOME MEASURE: Cmax

Find the recorded Cmax belonging to `O=C(O)CCNC(=O)c1ccc(CN(c2ccc(C3=CCCCC3)cc2)c2nc(-c3ccc(C(F)(F)F)cc3)cs2)cc1` and report it. 36 ng/mL

====

- TARGET DESC: Glucagon receptor (Homo sapiens, UniProt P47871)
- Sequence (P47871 whole entry): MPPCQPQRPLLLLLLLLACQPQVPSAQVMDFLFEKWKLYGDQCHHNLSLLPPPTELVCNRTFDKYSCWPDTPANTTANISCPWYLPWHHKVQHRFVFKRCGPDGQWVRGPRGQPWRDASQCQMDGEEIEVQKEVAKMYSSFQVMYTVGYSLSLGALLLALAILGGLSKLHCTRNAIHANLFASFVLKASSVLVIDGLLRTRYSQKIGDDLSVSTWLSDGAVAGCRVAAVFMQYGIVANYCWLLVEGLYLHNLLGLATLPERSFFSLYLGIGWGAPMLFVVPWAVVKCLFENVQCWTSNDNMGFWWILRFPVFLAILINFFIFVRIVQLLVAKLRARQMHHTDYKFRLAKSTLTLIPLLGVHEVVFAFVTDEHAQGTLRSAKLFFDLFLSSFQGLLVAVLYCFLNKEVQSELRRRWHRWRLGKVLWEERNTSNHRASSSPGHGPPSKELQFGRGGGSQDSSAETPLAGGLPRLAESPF
- MEASUREMENT PROTOCOL: Displacement of [125I]porcine glucagon from human recombinant glucagon receptor expressed in BHK cells by scintillation proximity assay
- Assay type: cell-based
In this section we review reported IC50 values for a set of compounds.

Some compounds with known IC50 results, for comparison:
>  <COMPOUND>
COc1ccccc1-c1csc(N(Cc2ccc(C(=O)NCCC(=O)O)cc2)c2ccc(SC(F)(F)F)cc2)n1

>  <IC50>
420 nM

$$$$
>  <COMPOUND>
O=C(O)CCNC(=O)c1ccc(N(Cc2ccc3c(c2)Cc2ccccc2-3)c2nc(-c3ccc(Cl)cc3)cs2)cc1

>  <IC50>
93 nM

$$$$

Pending compound:
Request the reported IC50 associated with O=C(O)CCNC(=O)c1ccc(CC(c2ccc(Cl)cc2)c2nc(-c3ccc(C(F)(F)F)cc3)cs2)cc1 (stereo not drawn) 96 nM

====

- MEASUREMENT PROTOCOL: Binding affinity to glucagon receptor in rabbit liver membrane by membrane filter assay
- Format: cell membranes, Oryctolagus cuniculus
In this section, each of the compounds is paired with its reported IC50.
Kindly provide the numeric value in nM only, without the unit symbol.

Solved entries (count: 2):
>  <COMPOUND STRUCTURE STRING>
O=C(O)CCNC(=O)c1ccc(CN(c2ccc(C(F)(F)F)cc2)c2nc(-c3ccc(Cl)cc3)cs2)cc1

>  <IC50 / nM>
1600

$$$$
>  <COMPOUND STRUCTURE STRING>
O=C(O)CCNC(=O)c1ccc(CN(c2ccc(Cl)cc2)c2nc(-c3ccc(OC(F)(F)F)cc3)cs2)cc1

>  <IC50 / nM>
1200

$$$$

Recorded IC50 for `O=C(O)CCNC(=O)c1ccc(CN(c2ccc(Cl)cc2)c2nc(-c3ccc(C(F)(F)F)cc3)cs2)cc1` , please? 943

Return reported IC50; argument: `O=C(O)CCNC(=O)c1ccc(CN(c2ccc3c(c2)CCCC3)c2nc(-c3ccc(Cl)c(Cl)c3)cs2)cc1` 1900

====

- MEASUREMENT PROTOCOL: Clearance in fasted Sprague-Dawley rat at 1.66 mg/kg, iv and 3.34 mg/kg, po by HTLC-MS/MS analysis
- Assay type: ADME, organism-based
- EXPERIMENTAL CONDITIONS: in vivo
OUTCOME MEASURE: clearance (mL/min/kg)
Respond numerically; units are mL/min/kg and should not be typed.

>  <COMPOUND STRUCTURE STRING>
O=C(O)CCNC(=O)c1ccc(CN(c2ccc3c(c2)CCC3)c2nc(-c3ccc(OC(F)(F)F)cc3)cs2)cc1

>  <MEASURED>
15

$$$$

Now turn to the next compound.
For the compound `O=C(O)CCNC(=O)c1ccc(CN(c2ccc3c(c2)CCC3)c2nc(-c3ccc(C(F)(F)F)cc3)cs2)cc1` , what clearance is on record? 13

====

- MEASUREMENT PROTOCOL: Half life in fasted Sprague-Dawley rat plasma at 1.49 mg/kg, iv by HTLC-MS/MS analysis
- Assay type: ADME, organism-based
- Set-up: dose 1.49 mg/kg, route intravenous
OUTCOME MEASURE: half-life (h)
Write the answer as a number in h, unit excluded.

// query half-life value for entry `O=C(O)CCNC(=O)c1ccc(CN(c2ccc(OC(F)(F)F)cc2)c2nc(-c3ccc(C(F)(F)F)cc3)cs2)cc1` 7.57

====

A collection of compounds and their measured pIC50
- MEASUREMENT PROTOCOL: Binding affinity to glucagon receptor in dog liver membrane by membrane filter assay
- Assay type: cell membranes, Canis lupus familiaris
pIC50 here is simply -log10 of the concentration when that concentration is written in mol/L.

>  <COMPOUND STRUCTURE STRING>
O=C(O)CCNC(=O)c1ccc(CN(c2ccc(OC(F)(F)F)cc2)c2nc(-c3ccc(C(F)(F)F)cc3)cs2)cc1

>  <MEASURED>
7.02

$$$$

// query pIC50 value for entry `O=C(O)CCNC(=O)c1ccc(CN(c2ccc(Cl)cc2)c2nc(-c3ccc(OC(F)(F)F)cc3)cs2)cc1` 7.11

// returns reported pIC50 for input `O=C(O)CCNC(=O)c1ccc(CN(c2ccc3c(c2)CCCC3)c2nc(-c3ccc(Cl)c(Cl)c3)cs2)cc1` 7.09

Record request: pIC50 value, item `O=C(O)CCNC(=O)c1ccc(CN(c2ccc(Cl)cc2)c2nc(-c3ccc(C(F)(F)F)cc3)cs2)cc1` 7.17

Param item = `O=C(O)CCNC(=O)c1ccc(CN(c2ccc(C(F)(F)F)cc2)c2nc(-c3ccc(Cl)cc3)cs2)cc1` ; retrieve measured pIC50. 6.81

Ref: ChEMBL document CHEMBL1138494
